# Assayed target: CDK4/Cyclin D1 (Homo sapiens, UniProt P11802)
# Sequence (P11802 whole entry, species assumed): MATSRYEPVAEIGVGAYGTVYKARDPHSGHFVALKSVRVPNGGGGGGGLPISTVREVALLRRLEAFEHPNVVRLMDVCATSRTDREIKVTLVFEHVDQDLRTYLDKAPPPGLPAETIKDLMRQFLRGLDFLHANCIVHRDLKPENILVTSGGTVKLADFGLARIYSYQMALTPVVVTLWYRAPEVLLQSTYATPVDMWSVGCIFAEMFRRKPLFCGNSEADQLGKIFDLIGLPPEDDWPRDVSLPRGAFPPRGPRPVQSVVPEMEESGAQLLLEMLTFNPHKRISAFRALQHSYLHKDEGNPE
# Sequence (P24385 whole entry partner, species assumed): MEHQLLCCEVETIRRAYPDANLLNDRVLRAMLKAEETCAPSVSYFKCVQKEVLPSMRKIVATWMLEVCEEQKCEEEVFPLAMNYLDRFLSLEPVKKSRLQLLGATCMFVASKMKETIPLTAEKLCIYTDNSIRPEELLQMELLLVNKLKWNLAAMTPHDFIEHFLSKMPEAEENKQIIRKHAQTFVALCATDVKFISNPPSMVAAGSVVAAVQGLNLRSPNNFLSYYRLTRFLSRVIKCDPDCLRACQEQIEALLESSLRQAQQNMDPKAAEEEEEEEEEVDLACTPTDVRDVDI
# Assay summary: CDK4/cyclin D1 kinase assay (GST-Rb phosphorylation)
# Type: biochemical
# Run parameters: Table 3; read-out: Average IC50 CDK4 cyclin D1
Property: pIC50
Just so you know, pIC50 here is -log10 of the concentration in molar units; reply with that number alone.

INSERT INTO assay_data (structure_notation, assayed_target, numeric_result) VALUES
  ('Cc1nc(N(C)C)sc1-c1ccnc(Nc2cccc(Cl)c2)n1', 'CDK4/Cyclin D1 (Homo sapiens, UniProt P11802)', 5.27);

Q. Name the recorded pIC50 for COc1ccc(Nc2nccc(-c3sc(C)nc3C)n2)cc1OC .
A. 5.96

Q. Item under review: Cc1nc(C)c(-c2ccnc(Nc3ccccc3)n2)s1 . Reported pIC50?
A. 5.31

Q. # input compound: Cc1nc(C)c(-c2ccnc(Nc3ccc(Cc4ccncc4)cc3)n2)s1 ; wanted: its pIC50
A. 5.96

Q. Quick check: pIC50 of CCCCNc1nc(C)c(-c2ccnc(Nc3ccc(F)cc3)n2)s1 ?
A. 4.52

Q. Tell me the measured pIC50 of Cc1nc(N)sc1-c1ccnc(Nc2ccc(CCO)cc2)n1 , please.
A. 6.09
